Cited source for all entries: the supplement of paper PMC10567573

B1: RSPH3 (parent)
chain: VDVQTELYLEEIADRIIEVDMECQ

Variants of: B1
ASSAY NOTES: protein stability index of a GFP-peptide fusion (GPS, HEK-293T) (PSI 1-6); higher = more stable;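 note: lentivirally expressed fusions sorted by FACS into six bins by GFP to DsRed ratio, PSI derived from sequencing read proportions per bin multiplied by bin number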
STUDY CONDITIONS: c terminus: a fixed tail appended
Could you label it Criterion met if measured protein stability index is 3 or higher, and Criterion not met otherwise?

# count of solved cases: 3
>>> df
                    sequence_chain        label_value
0  VDVQTELYLEEIADRIIEVDQECQ [M21Q]  Criterion not met
1  VDVQTELYLERIADRIIEVDMECQ [E11R]  Criterion not met
2  VDVQTELYLEEIATRIIEVDMECQ [D14T]  Criterion not met

IN: Is protein stability index at least 3? Consider VDVQTELYLEEIADRGIEVDMECQ [I16G]
OUT: Criterion met
